Parameter pIC50: see the listing below.
- assay_details: Cytotoxicity against human MKN45 cells after 72 hrs by MTT assay
- condition_notes: MKN-45, 72 h
Note on units: pIC50 is unitless, being -log10 of a concentration expressed in mol/L.

INSERT INTO measurements (smiles_record, test_readout, reported) VALUES
  ('COc1cc2c(Oc3ccc(NC(=O)c4nn(-c5ccc([N+](=O)[O-])cc5)c(=O)c5ccccc45)cc3F)ccnc2cc1OCCCN1CCOCC1', 'pIC50', 5.71),
  ('COc1cc2c(Oc3ccc(NC(=O)c4nn(-c5ccc([N+](=O)[O-])cc5)c(=O)c5ccccc45)cc3F)ccnc2cc1OCCCN1CCN(C)CC1', 'pIC50', 5.88),
  ('COc1cc2c(Oc3ccc(NC(=O)c4nn(-c5ccccc5F)c(=O)c5ccccc45)cc3F)ccnc2cc1OCCCN1CCN(C)CC1', 'pIC50', 6.68),
  ('COc1cc2c(Oc3ccc(NC(=O)c4nn(-c5ccc(F)cc5)c(=O)c5ccccc45)cc3F)ccnc2cc1OCCCN1CCCC1', 'pIC50', 7.15),
  ('COc1cc2c(Oc3ccc(NC(=O)c4nn(-c5ccccc5)c(=O)c5ccccc45)cc3F)ccnc2cc1OCCCN1CCCCC1', 'pIC50', 6.23),
  ('COc1cc2c(Oc3ccc(NC(=O)c4nn(-c5ccccc5F)c(=O)c5ccccc45)cc3F)ccnc2cc1OCCCN1CCC(C)CC1', 'pIC50', 6.59),
  ('COc1ccc(-n2nc(C(=O)Nc3ccc(Oc4ccnc5cc(OCCCN6CCCC6)c(OC)cc45)c(F)c3)c3ccccc3c2=O)cc1', 'pIC50', 5.88),
  ('COc1cc2c(Oc3ccc(NC(=O)c4nn(-c5ccccc5)c(=O)c5ccccc45)cc3F)ccnc2cc1OCCCN1CCCC1', 'pIC50', 6.28);

Here is another molecule to look at.
## Input Check the records and state pIC50 for COc1cc2c(Oc3ccc(NC(=O)c4nn(-c5ccccc5F)c(=O)c5ccccc45)cc3F)ccnc2cc1OCCCN1CCCC1
## Output 6.85

----------
- system_tested: Receptor-type tyrosine-protein kinase FLT3 (Homo sapiens, UniProt P36888)
- Sequence (P36888 whole entry): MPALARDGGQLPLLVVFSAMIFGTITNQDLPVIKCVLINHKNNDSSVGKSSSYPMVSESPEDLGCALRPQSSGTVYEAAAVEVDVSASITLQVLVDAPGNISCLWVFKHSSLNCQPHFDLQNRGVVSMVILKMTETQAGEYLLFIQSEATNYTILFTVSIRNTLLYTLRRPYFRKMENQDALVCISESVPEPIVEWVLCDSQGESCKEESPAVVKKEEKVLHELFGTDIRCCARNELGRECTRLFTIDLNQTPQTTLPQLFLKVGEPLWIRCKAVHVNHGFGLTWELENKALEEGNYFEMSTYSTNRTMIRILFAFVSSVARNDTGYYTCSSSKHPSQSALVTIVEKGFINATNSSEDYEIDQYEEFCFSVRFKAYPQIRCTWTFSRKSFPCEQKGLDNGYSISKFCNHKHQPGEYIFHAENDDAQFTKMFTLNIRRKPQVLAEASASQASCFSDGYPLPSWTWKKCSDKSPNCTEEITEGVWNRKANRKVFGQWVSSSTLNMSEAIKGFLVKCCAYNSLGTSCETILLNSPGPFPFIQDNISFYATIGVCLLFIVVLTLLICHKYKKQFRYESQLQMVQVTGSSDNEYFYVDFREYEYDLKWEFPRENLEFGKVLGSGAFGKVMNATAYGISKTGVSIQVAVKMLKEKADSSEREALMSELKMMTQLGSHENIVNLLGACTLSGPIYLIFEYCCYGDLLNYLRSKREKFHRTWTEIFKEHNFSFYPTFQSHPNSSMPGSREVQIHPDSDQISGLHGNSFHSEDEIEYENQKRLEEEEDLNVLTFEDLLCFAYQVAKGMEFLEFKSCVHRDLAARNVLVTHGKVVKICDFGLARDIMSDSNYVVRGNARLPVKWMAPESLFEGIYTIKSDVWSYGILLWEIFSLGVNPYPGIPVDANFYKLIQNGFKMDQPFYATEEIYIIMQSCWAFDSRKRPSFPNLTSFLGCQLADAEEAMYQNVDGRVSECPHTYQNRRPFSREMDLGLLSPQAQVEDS
test_readout: pIC50
By convention, pIC50 is the negative base-10 log of a molar concentration.

## Input Fill: pIC50 (Receptor-type tyrosine-protein kinase FLT3 (Homo sapiens, UniProt P36888)) for this compound COc1cc2c(Oc3ccc(NC(=O)c4nn(-c5ccc(F)cc5)c(=O)c5ccccc45)cc3F)ccnc2cc1OCCCN1CCCC1
## Output 8.46

----------
- assay_details: Cytotoxicity against human MKN45 cells after 72 hrs by MTT assay
- condition_notes: MKN-45, 72 h
Mark 1 only when IC50 stays strictly below 400 nM. Values equal to the cut-off are -1.

Below, 5 molecules whose answers are already recorded.
INSERT INTO measurements (smiles_record, category_label) VALUES
  ('COc1cc2c(Oc3ccc(NC(=O)c4nn(-c5ccccc5)c(=O)c5ccccc45)cc3F)ccnc2cc1OCCCN1CCN(C)CC1', -1),
  ('COc1cc2c(Oc3ccc(NC(=O)c4nn(-c5ccc(F)cc5)c(=O)c5ccccc45)cc3F)ccnc2cc1OCCCN1CCOCC1', 1),
  ('COc1cc2c(Oc3ccc(NC(=O)c4nn(-c5ccccc5)c(=O)c5ccccc45)cc3F)ccnc2cc1OCCCN1CCOCC1', -1),
  ('COc1cc2c(Oc3ccc(NC(=O)c4nn(-c5ccccc5)c(=O)c5ccccc45)cc3F)ccnc2cc1OCCCN1CCC(C)CC1', -1),
  ('COc1cc2c(Oc3ccc(NC(=O)c4nn(-c5ccc(Br)cc5)c(=O)c5ccccc45)cc3F)ccnc2cc1OCCCN1CCCC1', 1);

Now examine the next entry.
## Input Threshold test, IC50 < 400 nM: COc1cc2c(Oc3ccc(NC(=O)c4nn(-c5ccccc5F)c(=O)c5ccccc45)cc3F)ccnc2cc1OCCCN1CCCCC1
## Output 1
